Please go through the items and note down their OX2R Kb/OX1R Kb.
Target: human Orexin 1 receptor (Homo sapiens)
Construct: stably expressing the full-length human Orexin 1 receptor; expressed in transfected cells; host or cells: CHO-K1 (CHO-K1/hOx1), co-expressing the aequorin photoprotein
Sequence (O43613 whole entry): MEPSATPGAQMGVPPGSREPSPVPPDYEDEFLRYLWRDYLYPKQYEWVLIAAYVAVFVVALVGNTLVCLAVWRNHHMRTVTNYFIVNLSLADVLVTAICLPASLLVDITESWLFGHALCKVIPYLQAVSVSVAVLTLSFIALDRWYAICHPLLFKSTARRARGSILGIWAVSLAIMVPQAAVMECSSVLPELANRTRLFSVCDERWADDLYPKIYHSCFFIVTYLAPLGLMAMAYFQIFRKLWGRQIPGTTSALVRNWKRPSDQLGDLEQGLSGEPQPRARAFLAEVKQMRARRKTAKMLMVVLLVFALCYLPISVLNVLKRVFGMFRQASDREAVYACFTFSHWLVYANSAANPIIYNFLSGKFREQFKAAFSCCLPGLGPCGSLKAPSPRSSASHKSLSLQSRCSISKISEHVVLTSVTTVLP
Test: Assay A: OX1R IP1 (in vitro OX1R potency)
Type: cell-based
Please reply with the number alone, leaving off any unit.

Looking up CCN(C(=O)c1cc(F)cc(F)c1-n1nccn1)[C@@H](C)COc1ncc(C(F)(F)F)cn1 [Example 22] , I see its OX2R Kb/OX1R Kb listed as 406

Looking up CCN(C(=O)c1ccc(F)cc1-n1nccn1)[C@@H](C)COc1ncc(C(F)(F)F)cn1 [Example 7] , I see its OX2R Kb/OX1R Kb listed as 201

Looking up CCN(C(=O)c1cc(C)c(C)cc1-n1nccn1)[C@@H](C)COc1ncc(C(F)(F)F)cn1 [Example 2] , I see its OX2R Kb/OX1R Kb listed as 87

Looking up CCN(C(=O)c1ccccc1-c1noc(C)n1)[C@@H](C)COc1ncc(C(F)(F)F)cn1 [Example 23] , I see its OX2R Kb/OX1R Kb listed as 207

Looking up CCN(C(=O)c1ccc(C)c(C)c1-n1nccn1)[C@@H](C)COc1ncc(C(F)(F)F)cn1 [Example 10] , I see its OX2R Kb/OX1R Kb listed as 869

Looking up CCN(C(=O)c1ccccc1-c1ncco1)[C@@H](C)COc1ncc(C(F)(F)F)cn1 [Example 36] , I see its OX2R Kb/OX1R Kb listed as 160

Looking up CCN(C(=O)c1ccc(F)c(F)c1-n1nccn1)[C@@H](C)COc1ncc(C(F)(F)F)cn1 [Example 35] , I see its OX2R Kb/OX1R Kb listed as 182

Looking up CCN(C(=O)c1cc(F)ccc1-n1nccn1)[C@@H](C)COc1ncc(C(F)(F)F)cn1 [Example 20] , I see its OX2R Kb/OX1R Kb listed as 309

Looking up CCN(C(=O)c1cc(C)ccc1-n1cccn1)[C@@H](C)COc1ncc(C(F)(F)F)cn1 [Example 8] , I see its OX2R Kb/OX1R Kb listed as 228

Looking up CCN(C(=O)c1c(-n2nccn2)ccc(C)c1F)[C@@H](C)COc1ncc(C(F)(F)F)cn1 [Example 34] , I see its OX2R Kb/OX1R Kb listed as 239

Looking up CCN(C(=O)c1cccc(F)c1-n1nccn1)[C@@H](C)COc1ncc(Br)cn1 [Example 29] , I see its OX2R Kb/OX1R Kb listed as 178

Looking up CCN(C(=O)c1ccc(C)cc1-c1nnc(C)o1)[C@@H](C)COc1ncc(C(F)(F)F)cn1 [Example 19] , I see its OX2R Kb/OX1R Kb listed as 909

Looking up CCN(C(=O)c1ccc(OC)cc1-n1nccn1)[C@@H](C)COc1ncc(C(F)(F)F)cn1 [Example 30] , I see its OX2R Kb/OX1R Kb listed as 322

Looking up CCN(C(=O)c1cccc(F)c1-c1nnc(C)o1)[C@@H](C)COc1ncc(C(F)(F)F)cn1 [Example 18] , I see its OX2R Kb/OX1R Kb listed as 415

Looking up CCN(C(=O)c1ccccc1-c1nc(C)no1)[C@@H](C)COc1ncc(C(F)(F)F)cn1 [Example 15] , I see its OX2R Kb/OX1R Kb listed as 128

Looking up CCN(C(=O)c1ccccc1-c1cnc(C)o1)[C@@H](C)COc1ncc(C(F)(F)F)cn1 [Example 31] , I see its OX2R Kb/OX1R Kb listed as 124

Reference source for all entries: patent US10392369B2
